Source of measurements: patent US8697687B2

molecular target: epithelial sodium channel (ENaC) (Homo sapiens, UniProt P37088+P51168+P51170); construct: host or cells: primary Human Bronchial Epithelial cells (HBECs), air-liquid interface culture; assay: Short circuit current (ISC) measurements in Human Bronchial Epithelial cells, inhibition of amiloride-sensitive ISC; format: cell-based; details: inhibition of the amiloride-sensitive ISC; Human Bronchial Epithelial cells (HBECs) at air-liquid interface; compound added to apical chamber; read-out: IC50
Sequence (P37088 whole entry): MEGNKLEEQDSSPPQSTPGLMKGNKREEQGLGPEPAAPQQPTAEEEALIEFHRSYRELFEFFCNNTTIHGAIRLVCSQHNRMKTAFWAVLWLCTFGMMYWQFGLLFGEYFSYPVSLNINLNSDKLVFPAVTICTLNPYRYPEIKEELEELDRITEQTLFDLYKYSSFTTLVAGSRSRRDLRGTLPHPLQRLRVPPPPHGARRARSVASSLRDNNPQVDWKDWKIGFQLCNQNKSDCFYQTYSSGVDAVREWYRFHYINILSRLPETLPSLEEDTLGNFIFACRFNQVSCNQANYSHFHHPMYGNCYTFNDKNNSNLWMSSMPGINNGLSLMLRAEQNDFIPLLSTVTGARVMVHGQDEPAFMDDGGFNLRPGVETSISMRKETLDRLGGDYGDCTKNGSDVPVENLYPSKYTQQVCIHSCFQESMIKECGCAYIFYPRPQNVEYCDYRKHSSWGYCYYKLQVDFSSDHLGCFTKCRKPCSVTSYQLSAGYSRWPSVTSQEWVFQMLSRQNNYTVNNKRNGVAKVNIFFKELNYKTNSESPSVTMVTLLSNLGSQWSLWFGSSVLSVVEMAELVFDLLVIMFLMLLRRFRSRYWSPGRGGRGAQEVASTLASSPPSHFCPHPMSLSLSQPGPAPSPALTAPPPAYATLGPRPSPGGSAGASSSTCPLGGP
Sequence (P51168 whole entry): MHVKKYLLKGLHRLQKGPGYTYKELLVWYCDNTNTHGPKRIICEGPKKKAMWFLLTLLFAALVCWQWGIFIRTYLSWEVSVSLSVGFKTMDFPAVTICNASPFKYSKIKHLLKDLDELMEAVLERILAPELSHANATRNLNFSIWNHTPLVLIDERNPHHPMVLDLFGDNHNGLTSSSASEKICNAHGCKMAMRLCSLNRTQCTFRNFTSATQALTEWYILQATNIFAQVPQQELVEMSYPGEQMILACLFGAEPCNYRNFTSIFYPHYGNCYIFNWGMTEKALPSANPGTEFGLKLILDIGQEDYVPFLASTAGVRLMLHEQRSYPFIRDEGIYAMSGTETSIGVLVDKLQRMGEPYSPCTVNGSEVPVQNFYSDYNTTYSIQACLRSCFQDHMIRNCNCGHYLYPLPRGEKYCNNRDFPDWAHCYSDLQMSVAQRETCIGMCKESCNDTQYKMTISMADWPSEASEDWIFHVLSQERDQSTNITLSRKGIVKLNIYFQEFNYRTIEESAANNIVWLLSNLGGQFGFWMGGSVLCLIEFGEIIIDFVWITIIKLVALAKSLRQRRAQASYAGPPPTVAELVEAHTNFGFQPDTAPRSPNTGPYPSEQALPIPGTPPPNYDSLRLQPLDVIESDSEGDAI
Sequence (P51170 whole entry): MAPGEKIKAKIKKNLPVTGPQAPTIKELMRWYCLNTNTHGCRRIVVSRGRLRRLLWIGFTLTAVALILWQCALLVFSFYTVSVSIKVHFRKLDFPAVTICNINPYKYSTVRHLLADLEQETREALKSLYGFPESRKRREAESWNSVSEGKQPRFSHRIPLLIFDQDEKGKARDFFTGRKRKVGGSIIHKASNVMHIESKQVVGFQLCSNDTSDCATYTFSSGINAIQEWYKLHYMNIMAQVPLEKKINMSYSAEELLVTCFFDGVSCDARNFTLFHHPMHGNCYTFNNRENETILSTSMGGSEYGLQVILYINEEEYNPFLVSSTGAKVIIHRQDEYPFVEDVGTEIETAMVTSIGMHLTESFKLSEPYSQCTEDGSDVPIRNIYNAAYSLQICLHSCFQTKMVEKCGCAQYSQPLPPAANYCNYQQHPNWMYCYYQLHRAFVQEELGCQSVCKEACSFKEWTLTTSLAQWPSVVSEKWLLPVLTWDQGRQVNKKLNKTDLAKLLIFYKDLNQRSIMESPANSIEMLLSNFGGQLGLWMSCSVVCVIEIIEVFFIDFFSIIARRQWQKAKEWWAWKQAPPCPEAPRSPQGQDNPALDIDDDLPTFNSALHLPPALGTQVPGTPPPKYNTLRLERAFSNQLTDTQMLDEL
pIC50: −log10 of the molar value.
Below, each entry is listed alongside its reported pIC50.
reported endpoint: pIC50

>>> obs_value("Nc1nc(N)c(C(=O)N=C2NC3CCCCC3N2)nc1Cl (centres unmarked)")
5.77
>>> obs_value("Nc1nc(N)c(C(=O)/N=C2\\NCC3(CC4CCC(C3)N4C(=O)c3cccc4[nH]ccc34)N2)nc1Cl (centres unmarked)")
7.55
>>> obs_value("CC(c1ccccc1)N1CCC2(CC1)CN/C(=N\\C(=O)c1nc(Cl)c(N)nc1N)N2 (centres unmarked)")
7.60
>>> obs_value("CC(C)OCCCNS(=O)(=O)c1cccc(C(=O)N2CCC3(CC2)CN/C(=N\\C(=O)c2nc(Cl)c(N)nc2N)N3)c1")
8.02
>>> obs_value("Nc1nc(N)c(C(=O)/N=C2/NC[C@H](CCCCNC(=O)OCc3ccccc3)N2)nc1Cl")
7.19
>>> obs_value("Cc1[nH]c2ccc(CC(=O)N3CCC4(CC3)CN/C(=N\\C(=O)c3nc(Cl)c(N)nc3N)N4)cc2c1C")
7.78
>>> obs_value("CC(C)NC(=O)Nc1cc(C(=O)N2CCC3(CC2)CN/C(=N\\C(=O)c2nc(Cl)c(N)nc2N)N3)ccn1")
7.89
>>> obs_value("Nc1nc(N)c(C(=O)/N=C2\\NCC3(CCN(C(=O)c4cocn4)CC3)N2)nc1Cl")
6.76

----------
Below, each entry is listed alongside its reported pIC50.
target: epithelial sodium channel (ENaC) (Homo sapiens, UniProt P37088+P51168+P51170); construct: host or cells: primary Human Bronchial Epithelial cells (HBECs), air-liquid interface culture; experiment: Short circuit current (ISC) measurements in Human Bronchial Epithelial cells, inhibition of amiloride-sensitive ISC; type: cell-based; conditions: inhibition of the amiloride-sensitive ISC; Human Bronchial Epithelial cells (HBECs) at air-liquid interface; compound added to apical chamber; read-out: IC50
pIC50: −log10 of the molar value.
reported endpoint: pIC50

>>> obs_value("Nc1nc(N)c(C(=O)/N=C2\\NCC3(CCN(S(=O)(=O)Cc4ccccc4)CC3)N2)nc1Cl")
7.27
>>> obs_value("Nc1nc(N)c(C(=O)/N=C2\\NCC3(CCN(C(=O)[C@H]4CC[C@H](C(=O)N5CCC6(CC5)CN/C(=N\\C(=O)c5nc(Cl)c(N)nc5N)N6)CC4)CC3)N2)nc1Cl")
8.05
>>> obs_value("CCN(CC)C(=O)Cn1ccc2c(C(=O)N3CCC4(CC3)CN/C(=N\\C(=O)c3nc(Cl)c(N)nc3N)N4)cccc21")
7.05
